- target_system: alpha-PrP (human recombinant prion protein) (human, UniProt P04156 23-230)
- protocol_text: fluorescence anisotropy; pH 7.2
- assay_context: pseudoknot
Quick reference: Kd of the listed items.
reported_metric: Kd (nM)

binder | value_measured
GCCCCAUGGAGGUGGCUGGGGCCAGCCUCAUGGAGGUGGCUGGGGC (structured_RNA) [Cm47 (Cm48 in Table 2)] | 1610
GCCUCAUGGUGGUGGCUGGGGGCAGCCUCAUGGUGGUGGCUGGGG (structured_RNA) [Hm45] | 3340
GUCAAGGACAAGGUCAAGGUCAAGGUUCUUUUACUGCUUUGGGC (structured_RNA) [Ym44] | 1790
